Data origin: ChEMBL document CHEMBL1153175

pEC50 overview
Biological target: Sphingosine 1-phosphate receptor 3 (Homo sapiens)
Sequence (Q99500 whole entry): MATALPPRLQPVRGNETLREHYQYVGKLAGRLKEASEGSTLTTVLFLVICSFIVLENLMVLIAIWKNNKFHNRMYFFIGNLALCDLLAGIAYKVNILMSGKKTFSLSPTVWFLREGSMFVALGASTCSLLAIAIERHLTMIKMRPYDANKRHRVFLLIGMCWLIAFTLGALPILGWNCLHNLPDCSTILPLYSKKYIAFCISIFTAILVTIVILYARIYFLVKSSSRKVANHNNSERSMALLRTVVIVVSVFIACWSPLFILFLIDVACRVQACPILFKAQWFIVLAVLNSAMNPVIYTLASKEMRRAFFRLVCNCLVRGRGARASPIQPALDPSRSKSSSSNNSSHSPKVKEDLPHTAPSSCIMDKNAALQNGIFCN
Test: Agonist activity at human SIP3 receptor by [35S]GTPgammaS binding assay
pEC50: −log10 of the molar value.

>  <smiles-record>
Cc1nn(S(=O)(=O)/C=C/c2ccccc2)c2c1[C@H]1[C@@H](C2)C1(C)C

>  <target>
Sphingosine 1-phosphate receptor 3 (Homo sapiens)

>  <pEC50>
< 5.00

$$$$
>  <smiles-record>
CCCCCCC(=O)n1nc(C)c2c1C[C@@H]1[C@H]2C1(C)C

>  <target>
Sphingosine 1-phosphate receptor 3 (Homo sapiens)

>  <pEC50>
< 5.00

$$$$
>  <smiles-record>
Cc1nn(C(=O)/C=C/c2ccncc2)c2c1[C@H]1[C@@H](C2)C1(C)C

>  <target>
Sphingosine 1-phosphate receptor 3 (Homo sapiens)

>  <pEC50>
6.46

$$$$
>  <smiles-record>
Cc1nn(C(=O)CCc2ccccc2)c2c1[C@H]1[C@@H](C2)C1(C)C

>  <target>
Sphingosine 1-phosphate receptor 3 (Homo sapiens)

>  <pEC50>
< 5.00

$$$$
>  <smiles-record>
Cc1nn(C(=O)/C=C/c2cccc(C(F)(F)F)c2)c2c1[C@H]1[C@@H](C2)C1(C)C

>  <target>
Sphingosine 1-phosphate receptor 3 (Homo sapiens)

>  <pEC50>
< 5.00

$$$$
>  <smiles-record>
Cc1nn(C(=O)/C=C/c2ccc(S(N)(=O)=O)cc2)c2c1[C@H]1[C@@H](C2)C1(C)C

>  <target>
Sphingosine 1-phosphate receptor 3 (Homo sapiens)

>  <pEC50>
< 6.00

$$$$
